- System: MCF7 breast
- procedure-details: NCI-60 one-dose screen, 48 h
- particulars: 10 µM unless noted
About 83,000 compounds went through this panel and 20% of them were active in at least one assay; those are over-represented in the sample as a whole. Activity calls are given as the source filed them. Rule for the calls: active = growth percent below 10; inactive = the rest.
Answer with one of the outcomes 1.0 = active, 0.0 = inactive

# count of solved cases: 2
{"compound": "COc1cc(OCc2cccc(-c3ccc(C(O)c4nccs4)cc3)c2C)cc(OC)c1CNCCNC(C)=O (stereo not given)", "cat": 0.0}
{"compound": "O=CN1N=C(c2ccc(Nc3ccnc4cc(Cl)ccc34)cc2)CC1c1ccccc1 (stereo not given)", "cat": 0.0}

### Prompt Can you look up the reported call for COC1=C(C)C(=O)c2c(c(CCCl)c3n2CCC3OC(C)=O)C1=O (stereo not given) for me?
### Response 1.0

### Prompt Can you look up the reported call for O=c1[nH][n+](-c2ccc(Br)cc2)no1 for me?
### Response 0.0

### Prompt Fill in: this test's call for Cc1[nH]c(C(=O)Nc2ccc(C(=O)N3CCNCC3)cc2OC(C)C)c(Cl)c1Cl is ___
### Response 0.0

###

- System: UACC-62 melanoma
- procedure-details: NCI-60 one-dose screen, 48 h (100 = growth as untreated, 0 = no growth, -100 = all killed)
- particulars: 10 µM unless noted
About 83,000 compounds went through this panel and 20% of them were active in at least one assay; those are over-represented in the sample as a whole.
reported-endpoint: growth (%)
Answers are plain numbers, in %.

Worked set:
{"compound": "Nc1cc2c(cc1Br)-c1cc(Cl)ccc1C2=O", "measured-number": 96.3}
{"compound": "Cc1cccc(NC2=C(Cl)C(=O)c3nc(C)ccc3C2=O)c1", "measured-number": -67}
{"compound": "CN1CCN(c2ccc(-c3cc4c(Nc5ccc(F)c(Cl)c5)ncnn4c3)cn2)CC1", "measured-number": 106}
{"compound": "O=S(=O)(Nc1ccc(-c2nc(-c3cccc(OCCN4CCOCC4)c3)c(-c3ccnc(Br)c3)[nH]2)cc1)c1ccccc1", "measured-number": 28.7}

### Prompt Check the records and state growth for COc1ccc(S(=O)(=O)n2cc(C3OC(c4cc(OC)c(OC)c(OC)c4)=NN3C(C)=O)c3ccccc32)cc1OC (stereo not given)
### Response 72.8

###

- Tested on: T-47D breast
- procedure-details: NCI-60 one-dose screen, 48 h (100 = growth as untreated, 0 = no growth, -100 = all killed)
- particulars: 10 µM unless noted
- Procedure: Growth inhibition of the T-47D human tumor cell line is measured as a screen for anti-cancer activity. Cells are grown in 96 well plates and exposed to the test compound for 48 hours. Compounds are tested at a single concentration, which is 10^-5 M for most compounds. The reported endpoint is percent growth (GI% or GIPRCNT), where numbers from 0 - 100% represent growth inhibition, and numbers from -100% - 0 represent cell death. For example, a value of 40 represents 60% growth inhibition. […]
The panel holds about 83,000 compounds, 20% with a hit somewhere; the sample as a whole holds those more often.
Class membership depends on growth alone; the intervals are LOW = under 40%, MEDIUM = from 40% up to 80%, HIGH = 80% and over

Solved entries:
{"molecule": "Cc1cccc(NC2=C(Cl)C(=O)c3nc(C)ccc3C2=O)c1", "cat": "LOW"}
{"molecule": "COc1ccc(C(=O)C(C)C)c2ccccc12", "cat": "HIGH"}
{"molecule": "CCCCCCNC(=O)Oc1ccc(/C(=C(\\C)c2ccc(OC)cc2)c2ccc(OCCN3CCCCC3)cc2)cc1", "cat": "MEDIUM"}
{"molecule": "Cc1cc2nc3cc(C)c(N)cc3[n+](-c3ccccc3)c2cc1N", "cat": "LOW"}
{"molecule": "O=C(N=c1oc2ccccc2cc1-c1cc2ccccc2[nH]1)Nc1ccc(Cl)cc1", "cat": "HIGH"}
{"molecule": "COC(=O)[C@H](C)NC(=O)NC(=O)NC(=O)CI", "cat": "MEDIUM"}

### Prompt # bin lookup: classify COc1cc2cc(Oc3ccc(NC(=O)Nc4ccc(Cl)c(C(F)(F)F)c4)cc3)c(C)nc2cc1OCCN1CCOCC1 by its growth
### Response LOW

### Prompt Pick a category. Item: O=C(Cc1ccc(F)c(Cl)c1)Nc1cc(C2(C(F)(F)F)CC2)nn1CC1CCCCC1
### Response LOW

###

- Test system: A498 renal
- procedure-details: NCI-60 one-dose screen, 48 h (100 = growth as untreated, 0 = no growth, -100 = all killed)
- particulars: 10 µM unless noted
- Description: Growth inhibition of the A498 human tumor cell line is measured as a screen for anti-cancer activity. Cells are grown in 96 well plates and exposed to the test compound for 48 hours. Compounds are tested at a single concentration, which is 10^-5 M for most compounds. The reported endpoint is percent growth (GI% or GIPRCNT), where numbers from 0 - 100% represent growth inhibition, and numbers from -100% - 0 represent cell death. For example, a value of 40 represents 60% growth inhibition. […]
The panel holds about 83,000 compounds, 20% with a hit somewhere; the sample as a whole holds those more often.
What growth was measured for each of the following?
Answers are plain numbers, in %.

Past entries and their recorded results:
{"compound": "Cc1[nH]c(C(=O)Nc2ccc(C(=O)N3CCNCC3)cc2OC(C)C)c(Cl)c1Cl", "growth (%)": 64.4}
{"compound": "O=[N+]([O-])c1ccc(Oc2nc(Nc3ccc(O[C@H]4CO[C@H]5[C@@H]4OC[C@@H]5O)c(Cl)c3)ncc2F)c(Cl)c1", "growth (%)": -2.07}
{"compound": "C=C1C(=O)O[C@H]2[C@H]1CC/C(COC(=O)NCCOCCOCC(=O)Nc1ccc(OC)c(C(N)=O)c1O)=C\\CC[C@@]1(C)O[C@@H]21", "growth (%)": 92.5}
{"compound": "CCC(=O)Nc1ccc(-c2nc(-c3cccc(OC)c3)c(-c3ccnc(Br)c3)[nH]2)cc1", "growth (%)": 50.5}
{"compound": "COc1ccc2cc(C(C)C(=O)Nc3ccc(-c4n[nH]c(=S)n4C4CCCCC4)cc3)ccc2c1 (stereo not drawn)", "growth (%)": 77.3}

Can you give me growth for all of these, one by one?
1. O=C1CCC/C=C\C[C@H]2C=CC(=O)/C2=C/C[C@H](CCc2cccc(C(F)(F)F)c2)O1
2. CCN(CC)S(=O)(=O)c1ccc(NC(=O)CSc2nnc(C)n2-c2ccccc2)cc1
3. O=C(O)CCC/C=C\C[C@H]1C=CC(=O)/C1=C/C[C@@H](O)CCc1cccc(C(F)(F)F)c1

### Response
[-79.7, 107, -12]

###

- Test system: CCRF-CEM leukemia
- procedure-details: NCI-60 one-dose screen, 48 h (100 = growth as untreated, 0 = no growth, -100 = all killed)
- particulars: 10 µM unless noted
Compounds without any hit were thinned out: in the full panel of roughly 83,000, 20% have a hit.
reported-endpoint: growth (%)
Numbers only, in %.

Some solved entries appear below for comparison.
{"compound": "C[C@H](C(=O)Nc1ccc(S(N)(=O)=O)cc1)S(=O)(=O)c1ccccc1", "unit-tag": "%", "measured-number": 105}
{"compound": "CCCCCCCCCCCCCCCCCC1OCC(COC(=O)O[C@]2(CC)C(=O)OCc3c2cc2n(c3=O)Cc3cc4ccccc4nc3-2)O1 (stereo partly drawn)", "unit-tag": "%", "measured-number": 29.2}
{"compound": "COc1ccc(C(=O)COC(=O)[C@H](C[Se][Se]C[C@H](NC(=O)c2ccc(Br)cc2F)C(=O)OCC(=O)c2ccc(OC)cc2)NC(=O)c2ccc(Br)cc2F)cc1", "unit-tag": "%", "measured-number": -25.4}
{"compound": "COc1cc(C(=O)N/N=C/c2cc3cc(OCc4ccccc4)ccc3nc2OC)cc(OC)c1OC", "unit-tag": "%", "measured-number": 65.9}
{"compound": "COc1ccc2c(c1)C(C)Cc1c(ncnc1-n1c(C)nc3ccccc31)N2C (stereo not drawn)", "unit-tag": "%", "measured-number": 18.3}
{"compound": "Cc1c(C(=O)/C=C/Nc2c(Cl)cc(S(N)(=O)=O)cc2Cl)sc2nc3ccccc3n12", "unit-tag": "%", "measured-number": 102}

Need growth for each of these compounds.
1. C=C1C(=O)O[C@H]2[C@H]1CC/C(COC(=O)CCSSCCC(=O)OC/C1=C/CC[C@@]3(C)O[C@H]3[C@H]3OC(=O)C(=C)[C@@H]3CC1)=C\CC[C@@]1(C)O[C@@H]21
2. Cc1ccc(C2CC(c3ccc(Nc4ccnc5cc(Cl)ccc45)cc3)=NN2C=O)cc1 (stereo not drawn)

### Response
[-23.6, 28.2]

###

Assign growth to each entry below.
- System: SW-620 colon
- procedure-details: NCI-60 one-dose screen, 48 h (100 = growth as untreated, 0 = no growth, -100 = all killed)
- particulars: 10 µM unless noted
- Procedure: Growth inhibition of the SW-620 human tumor cell line is measured as a screen for anti-cancer activity. Cells are grown in 96 well plates and exposed to the test compound for 48 hours. Compounds are tested at a single concentration, which is 10^-5 M for most compounds. The reported endpoint is percent growth (GI% or GIPRCNT), where numbers from 0 - 100% represent growth inhibition, and numbers from -100% - 0 represent cell death. For example, a value of 40 represents 60% growth inhibition. […]
The panel holds about 83,000 compounds, 20% with a hit somewhere; the sample as a whole holds those more often.
One number for each entry, in %.

Known growth results, listed for orientation:
{"compound": "CCN(CC)c1ccc(C2=NN(C(C)=O)C(c3cc(OC)c(OC)c(OC)c3)C2)cc1 (stereo unspecified)", "growth, %": 22.3}
{"compound": "O=c1ccc(N=Nc2ccc([N+](=O)[O-])cc2)ccc1O", "growth, %": 15.4}
{"compound": "Cn1cc(C(=O)c2nc(-c3cn(C)c4ccc(F)cc34)no2)c2cc(F)ccc21", "growth, %": 90.6}

# batch: return growth for each of the 7 compounds below
1. Oc1ccc(Cl)cc1Cc1cc(Cl)cc(Cl)c1O
2. c1ccc(Nc2cc(-c3cccnc3)[nH]n2)cc1
3. COc1ccc(/C=C(\C#N)n2nnc3c(F)cccc32)cc1
4. O=C(Cc1ccc2c(c1)OCCO2)Nc1nc2ccc(F)cc2s1
5. N#C/C(=C\c1ccc(F)cc1)n1nc2cccc(F)c2n1
6. C[C@]12CC[C@@H]3c4cc(OC(F)F)c(OS(N)(=O)=O)cc4CC[C@H]3[C@@H]1CC[C@@H]2O
7. O=C(CCc1nnc(-c2c(Cl)cccc2Cl)o1)c1nc2ccccc2[nH]1

### Response
[28, 115, 15.6, 104, 18.9, 28.1, 35.8]

### Prompt Report growth for Nc1nc2ccccc2c2c(=O)c3cc(F)ccc3sc12
### Response 107
